Below is a list of entries, each paired with its recorded RAT MICROSOMAL STABILITY (% REMAINING AFTER 30 MINUTES) value.
Protocol Summary: In vitro rat microsomal stability assay
Format: in vitro ADME, rat (Sprague-Dawley)
Test Parameters: Sprague-Dawley, rat, microsomes, 0.5 h, 0.5 μM, pH 7.4

Completed entries (count: 2):
>>> data_value("Nc1cccnc1C(O)C1(c2cccc(OC(F)(F)F)c2)CCC1 (stereo not drawn)")
"<0.01%"
>>> data_value("O=C1CC(c2ccnc(C(F)(F)F)c2)([C@H](O)c2ccccn2)C1")
">85%"

Entry under test: OC(C1CCc2cccnc21)C1(c2ccc(OC(F)(F)F)cc2)CCC1 (stereo not drawn) [Example 175] . Its RAT MICROSOMAL STABILITY (% REMAINING AFTER 30 MINUTES) was <0.01%
